Test: qHTS Assay for inhibitors of the human cytomegalovirus (HCMV); further: on the % scale 0 is the no-effect control and ±100 the full control effect
Settings: HFF cells, HCMV-luciferase reporter, 72 h; at 57.5 µM; active compounds read low
Protocol: NCGC Assay Overview: Infection with human cytomegalovirus (HCMV) continues to pose significant threats for pregnant women and immunocompromised hosts. […] This is a cell-based assay for HCMV inhibition in HFFs cells. […] At 72 h post infection cell lysates were collected and luciferase activity was determined using the Glomax-Multi + Detection System (Promega, Madison, WI). […]
The campaign covered roughly 410,000 compounds. About 18,000 (4.4%) were called active. Inconclusive results (about 7%) are left out. The full list was thinned out, with actives kept by preference.
property: activity change, negative = inhibition (%)
Quick note: give the figure in %, leave out the unit.

{"columns": ["mol", "activity change, negative = inhibition, %"],
 "data": [
  ["CN(C(=O)COC(=O)Cn1cnc2c1c(=O)n(C)c(=O)n2C)C1(C#N)CCCCC1", 40.8]
]}

Quick one: activity change, negative = inhibition of O=C(NNC(=O)c1ccco1)Nc1ccccc1 ?
-62

Quick one: activity change, negative = inhibition of Cc1ccc2[nH]c(=O)c(CC=C(Cl)Cl)c(C)c2c1 ?
-11.6

Quick one: activity change, negative = inhibition of Cc1ccccc1OCC(=O)Nc1c(C(=O)Nc2ccccc2F)oc2ccccc12 ?
11.7

Quick one: activity change, negative = inhibition of O=C(CNC(=O)c1ccco1)NNC(=O)c1ccc(Br)cc1 ?
-4.75

Quick one: activity change, negative = inhibition of CCCCN(CC)C(=O)c1c[nH]c2ccc(S(=O)(=O)Nc3cccc(OC)c3)cc2c1=O ?
7.97
